Tested on: K4 kissing-loop RNA reporter;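 further: bound reporter read as fluorescence of individual clusters on recovered sequencing chips by microscopy, with normalized cluster intensities fitted with a binding model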
Experiment: apparent KD of K4 kissing-loop reporter; higher = weaker reporter binding
Conditions: Eterna round: R107; input ligand: arginine 13.2 mM
Provide the reported apparent KD of K4 kissing-loop reporter of each item.
One number for each entry, in nM.

// below: answered sequences
I'd like to know its apparent KD of K4 kissing-loop reporter. The sequence in question is CUCGAGUGAUGUUCCUUUAUUUAUACAGAUACCAGUGAAUUUUAACACCCUUGGCAGCUGGUUGUAUCUUUGUUUUUUACACAUG [JR_Nu_ExcTheophyA_Sub025] 128

What apparent KD of K4 kissing-loop reporter value was documented for this sequence, `UGACUGGACUGAAGGAGCGCUAAACUCCUAGUGAUGUUAGGAUAACGAGACAAAGUCUCGAAGCAGGUAGGUCGCAGUCUAGUCU` ? 110

Which value of apparent KD of K4 kissing-loop reporter has been reported for AAUUCCUGUUAUGAUACCAGAAAUCACAGCAACCUGCCUACCUAGUGAUGUUAGGAGAAUUUCCCUUGGCAGCAUCGACUGAAGG [theeternabot_sameState_KL_Theo_B_38] in the records? 173

Entry under review: AUAUUUAUUUAGUCACUUUUAAUAUUAUGUCAGGAUAUCGUAAUUUCGAGAAGGGACUCAUGCUAGUGAUGUUAGCUAAUUCUCA [JR_Nu3_ExcFMNA_Sub023] . Reported apparent KD of K4 kissing-loop reporter? 161

apparent KD of K4 kissing-loop reporter for AGAUUCGACACGGCCGCCACUCGUGGUGGAUUACCGAGUGUCGAAGUUGAGUGAUGUUCAAGUACGAGGACCGGGUGUUGAGUCU [KL-XTryp-B9 #analogue] ? 204

Fill in: apparent KD of K4 kissing-loop reporter of CUGACGCUGAUACGGUGGCCGCUGGUCGUGCGAGGACCGGUACGGCCGCCACUCGCAUGAGUGAUGUUCAUGUGUCGUCGUCGUC [#07 K4 Tryptophan A Exclusion] is ___ 108

Look at each sequence and report its apparent KD of K4 kissing-loop reporter.
1. AAUAUACAGGGAAGGAGCGCCGUCCAGUGAUGUUGGAGUUAAAUACCAGUGAUGUUGGUUAGGCAGGUAGGUCGCCCUAAAGUAU [Exclusion Arginine B Gf 2]
2. CGACACUCAGCGGCCGCCACUGAGCUAUAUUUUGCAGGUGCCCGAGUAAGUGAUGUUUACUUCGUCAGGACCGGGCUGGUUUCAA [theeternabot_sameState_KL_Trp_B_20]
3. CGGCUUAGUAGCGCGAGUUGACGUGCCAUCCGAGGACCGGUACGGCCGCCACUCGUGAUCUGUUAAAGUGAUGUUUUAAUGCCAU
4. UUAAUAUUGUCGGCCGCCACUGUUUAGUAUUUUGUAUAAUCUAUUUCAAAGUGAUGUUUUGAUUCCAGGACCGGGACAUUUGAUA [JR_Nu_ExcTryptoB_Sub031]
5. GGAGGGAUCUCGGCCGCCACUCAUAAGAAAUGGGCCUCAGGGAUAUAGUGAUGUUAUGUAAAGAAGAGGACCGGGAGAAAGAAGG [ExTryptoB.Dc]
6. UAUGGCGAGGGCCGCAUAUCAUUAAACCAGAAGGAUAUAUGUUACUAUAGAAGGUCUGCCGCUGCGAGUGAUGUUUGGAGUGAUC [theeternabot_sameState_KL_FMN_A_3]

82.7
298
602
414
245
195
